Target Or System: CB1 (mutant) (Homo sapiens, UniProt P21554)
Sequence (P21554 1-417, change not shown): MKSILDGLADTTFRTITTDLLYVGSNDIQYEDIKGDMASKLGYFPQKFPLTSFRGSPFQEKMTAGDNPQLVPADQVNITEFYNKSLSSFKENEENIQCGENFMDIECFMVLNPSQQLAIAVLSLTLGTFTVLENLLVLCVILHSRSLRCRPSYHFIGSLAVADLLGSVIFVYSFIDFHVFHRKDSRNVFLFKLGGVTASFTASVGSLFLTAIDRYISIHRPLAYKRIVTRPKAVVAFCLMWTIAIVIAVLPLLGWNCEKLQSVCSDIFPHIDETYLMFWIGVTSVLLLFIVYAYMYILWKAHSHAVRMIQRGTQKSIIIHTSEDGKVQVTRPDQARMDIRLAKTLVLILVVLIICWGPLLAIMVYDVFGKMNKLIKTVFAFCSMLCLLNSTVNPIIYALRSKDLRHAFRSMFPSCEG
Method Summary: R-SAT functional receptor assay, CB1 (mutant, truncated after amino acid 417)
Type: cell-based
Run Conditions: Appendix A; R-SAT CB1; receptor form not stated; relative to SR141716 (100%); read-out: % Inhibition
Attribute Measured: Emax

Record excerpt, results attached:
compound="O=C(NCc1ccco1)c1ccc2c(c1)N=C(c1cccc(Cl)c1)c1ccccc1S2 [drawing 583]" observed=100%
compound="CCCNC(=O)c1ccc2c(c1)N=C(c1ccc(Cl)cc1F)c1ccccc1S2 [drawing 851]" observed=101%
compound="Cc1ccsc1C1=Nc2cc(C(=O)NCc3cccs3)ccc2Sc2ccccc21 [drawing 685]" observed=114%
compound="O=C(NCc1ccccc1Br)c1ccc2c(c1)N=C(c1ccc(Cl)cc1)c1ccccc1S2 [drawing 608]" observed=94%
compound="O=C(NCCC(F)(F)F)c1ccc2c(c1)N=C(c1ccc(Cl)s1)c1ccccc1S2 [drawing 663]" observed=95%
compound=CCCC1=Nc2cc(C(=O)NCCc3ccc(SC)cc3)ccc2Sc2ccccc21 observed=103%

Hi team, please reply with Emax for each item in this list.
1. CC(NC(=O)c1ccc2c(c1)N=C(c1ccc(Cl)cc1)c1ccccc1S2)c1ccccc1 (stereo not drawn) [drawing 1107]
2. CCCC1=Nc2cc(C(=O)NC(C)CCN(C)C(=O)OCC)ccc2Sc2ccc(C)cc21 (stereo not drawn)
3. CCCC1=NC2=C(CCC(C(=O)N3CCN(c4ccccc4F)CC3)=C2)Sc2ccccc21

1. 88%
2. 79%
3. 97%
